- Test system: PC-3 prostate
- assay: NCI-60 one-dose screen, 48 h (100 = growth as untreated, 0 = no growth, -100 = all killed)
- experimental context: 10 µM unless noted
The panel holds about 83,000 compounds, 20% with a hit somewhere; the sample as a whole holds those more often.
Quick list: growth per entry.
The answer is to be given in %; state only the numeric part.

Some compounds with known growth results, for comparison:
N#Cc1c(Nc2ccccc2)nn2c(-c3ccc([N+](=O)[O-])cc3)ccnc12; 103
COc1ccc(NC(=O)CSc2nnc(-c3ccc4nc(-c5ccc(OC)c(OC)c5)[nH]c4c3)o2)cc1OC; 102
COc1ccc2c(c1)c(CC(=O)[Se]CCC#N)c(C)n2C(=O)c1ccc(Cl)cc1; 17.4
CCNC(=O)Oc1ccc(/C(=C(/C)c2ccccc2)c2ccc(OCCN3CCCCCC3)cc2)cc1; 13.1
CN(C)CCN(C)c1ccc2ncc(C#Cc3cncc(C(=O)Nc4ccc(CN5CCN(C)CC5)c(C(F)(F)F)c4)c3)n2n1; 65.2

INPUT: Query (compound): CCCSc1nc(Nc2ccc(/C(C)=N\NC(N)=S)cc2)c(C#N)c(-c2ccccc2)n1 ; field requested: growth
OUTPUT: 79.9

INPUT: Query (compound): NC(N)=Nc1ccc(Oc2cccc(NC(N)=Nc3ccc(I)cc3F)c2)cn1 ; field requested: growth
OUTPUT: 28.1

INPUT: Query (compound): N#Cc1cccc(CN2CCC3=C(C2)C(=O)N(Cc2ccc(Cl)cc2)C2=NCCN23)c1 ; field requested: growth
OUTPUT: 24.1

INPUT: Query (compound): COc1cc2nc(Cl)nc(Nc3cccc(C4=Nc5c(N)nc(N)nc5NC(c5ccc(Cl)cc5)C4)c3)c2cc1OC (stereo unspecified) ; field requested: growth
OUTPUT: 62.8

INPUT: Query (compound): COc1ccc(/C(N)=N/C(N)=N/c2nc3ccccc3s2)cc1 ; field requested: growth
OUTPUT: 62

INPUT: Query (compound): CC[C@H](CO)Nc1ccc2ncc(C#Cc3cncc(C(=O)Nc4ccc(CN5CCN(C)CC5)c(C(F)(F)F)c4)c3)n2n1 ; field requested: growth
OUTPUT: -31.7

INPUT: Query (compound): COc1cc(/C=C/C(=O)c2ccc(NC(=O)CSc3nnc(-c4ccc(-c5nc6ccc(Cl)cc6[nH]5)cc4)o3)cc2)cc(OC)c1OC ; field requested: growth
OUTPUT: 92.2

INPUT: Query (compound): CCN(CC)c1ccc2c(c1)Oc1nc(N)c(C#N)c(N)c1C2Sc1ccc(F)cc1 (stereo unspecified) ; field requested: growth
OUTPUT: -74

INPUT: Query (compound): CCCC(=O)NC(c1cccnc1)c1cc(C(C)(C)C)c2cccnc2c1O (stereo unspecified) ; field requested: growth
OUTPUT: 44.1

###

- Test system: M14 melanoma
- assay: NCI-60 one-dose screen, 48 h
- experimental context: 10 µM unless noted
About 83,000 compounds went through this panel and 20% of them were active in at least one assay; those are over-represented in the sample as a whole. Active and inactive are the calls of the source. How the source made its calls: active means growth percent below 10; inactive means the rest.
Pick one and only one: yes for active, no for inactive

Some solved cases for reference:
Cn1cc(-c2cc(N)n3nc(-c4cn(C)c5ccccc45)cc3n2)c2ccccc21; no
Cc1ccc(CSc2nc(-c3ccc(Cl)cc3)c(C#N)c(N3CCNCC3)n2)cc1; no
COc1cc(-c2nc(SC(C)C)n(C(C)C)c(=O)c2C#N)ccc1OCc1ccccc1; no
CC(C)(C)CC(C)(C)n1nnnc1C(Nc1nccs1)c1cc2cccc3ccc4cccc1c4c32 (centres undefined); no
COc1cc(OC)c(S(N)(=O)=O)cc1C(=O)/C=C/c1ccc(C)cc1; no

INPUT: Identify the outcome logged in this assay for the molecule shown: C=C(C)[C@@H]1CC[C@]2(COP(=O)(OCC)OCC)CC[C@]3(C)[C@H](CC[C@@H]4[C@@]5(C)CCCNC(C)(C)[C@@H]5CC[C@]43C)[C@@H]12
OUTPUT: yes

INPUT: Identify the outcome logged in this assay for the molecule shown: CC(=O)N(C)C1CCc2c(sc(NC(=O)c3ccc(C(C)(C)C)cc3)c2C(N)=O)C1 (centres undefined)
OUTPUT: no

INPUT: Identify the outcome logged in this assay for the molecule shown: CCNC(=O)N1CCc2cc(OC)c(OCCc3ccc(OC)cc3)cc2C1c1ccc(Cl)cc1C (centres undefined)
OUTPUT: no

INPUT: Identify the outcome logged in this assay for the molecule shown: N/C(=N\C(N)=N\c1nc2ccccc2s1)c1cccc(F)c1
OUTPUT: no
